Provenance of the data: patent US20240116985A1

# targetOrSystem: beta-catenin (Homo sapiens (Human)) (UniProt P35222)
# Sequence (P35222 whole entry): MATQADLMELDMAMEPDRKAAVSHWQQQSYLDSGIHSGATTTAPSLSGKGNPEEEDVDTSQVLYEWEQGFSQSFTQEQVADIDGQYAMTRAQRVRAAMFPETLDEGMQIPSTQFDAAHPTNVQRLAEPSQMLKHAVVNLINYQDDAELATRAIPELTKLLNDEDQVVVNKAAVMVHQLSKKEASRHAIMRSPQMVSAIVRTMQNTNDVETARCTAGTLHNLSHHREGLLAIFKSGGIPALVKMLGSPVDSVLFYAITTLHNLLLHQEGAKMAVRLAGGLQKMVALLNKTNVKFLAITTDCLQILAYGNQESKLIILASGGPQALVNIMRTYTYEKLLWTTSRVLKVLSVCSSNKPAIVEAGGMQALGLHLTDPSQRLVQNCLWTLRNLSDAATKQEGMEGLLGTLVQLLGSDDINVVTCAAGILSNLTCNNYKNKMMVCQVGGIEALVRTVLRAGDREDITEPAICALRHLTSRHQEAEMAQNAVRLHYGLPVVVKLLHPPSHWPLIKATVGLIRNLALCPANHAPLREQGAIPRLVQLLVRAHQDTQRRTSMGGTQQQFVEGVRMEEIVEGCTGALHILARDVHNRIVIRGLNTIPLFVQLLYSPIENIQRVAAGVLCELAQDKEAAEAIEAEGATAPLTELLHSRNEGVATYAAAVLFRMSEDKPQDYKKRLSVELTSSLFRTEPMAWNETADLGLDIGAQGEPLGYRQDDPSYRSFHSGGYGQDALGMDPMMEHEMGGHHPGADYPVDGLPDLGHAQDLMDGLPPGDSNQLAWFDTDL
# protocolDescription: fluorescence polarization competition; full-length beta-catenin with 5FAM-TCF4(10-53) probe as competitor
pEC50: −log10 of the molar value. Starred links: 1 amine or outer side, 2 acyl side, 3 side chain; linkers in the order of their positions; H or OH if unused. Positions of bridges follow the written chain, without caps; N, C: chain ends. Non-standard residues stand in square brackets, D forms with d. Primed or numbered codes have the meaning given here. PyrS2″ = (S)-3-amino-1-((pent-4-en-1-yloxy)carbonyl)pyrrolidine-3-carboxylic acid (stapling residue), C=CCCCOC(=O)N1CC[C@@](N[*:1])(C(=O)[*:2])C1; B5(5) = 2,2-bis(4-pentenyl)glycine, 2-amino-2-(pent-4-en-1-yl)hept-6-enoic acid (stitching residue), C=CCCCC(CCCC=C)(N[*:1])C(=O)[*:2]; Phe(2-Cl) = N[C@@H](Cc1ccccc1Cl)C(=O)O; Bta = N[C@@H](Cc1csc2ccccc12)C(=O)O; αAllylPro = C=CC[C@@]1(C(=O)O)CCCN1; tBuAla = CC(C)(C)C[C@H](N)C(=O)O; Nle = CCCC[C@H](N)C(=O)O
assayReadout: pEC50

>>> numericresult("Ac-[αAllylPro]D[Nle][B5(5)]DDAAFL[PyrS2″][Phe(2-Cl)][Bta]L-NH2 (staple 1-4, 4-11; also: staple isomer, earlier eluting HPLC peak) [I-1420]")
6.91
>>> numericresult("Ac-[αAllylPro]D[tBuAla][B5(5)]DDAAFL[PyrS2″][Phe(2-Cl)][Bta]L-NH2 (staple 1-4, 4-11) [I-1417]")
6.70
